Give measured DC50 for each item. Keep answers brief.
- target entity: BRM (Homo sapiens)
- Construct: In-Cell Western Screen of BRM Degradation in SW1573 Cells; endogenous in cells; host or cells: SW1573
- method summary: In-cell Western screen of BRM degradation in SW1573 cells (Dmax and DC50)
- Assay type: cell-based
- settings: target protein degradation; read-out: BRM DC50

Requested field: DC50. Item: Cc1ncsc1-c1ccc([C@H](C)NC(=O)[C@@H]2C[C@@H](O)CN2C(=O)[C@H](c2cc(OC3CN(CCN4CCC(O[C@H]5C[C@H](Oc6cc(N7C8CCC7CN(c7cc(-c9ccccc9O)nnc7N)C8)ccn6)C5)CC4)C3)no2)C(C)C)cc1 [compound 370]
10 to 30 nM

// returns reported DC50 for input Cc1ncsc1-c1ccc([C@H](C)NC(=O)[C@@H]2C[C@@H](O)CN2C(=O)[C@@H](c2cc(OCCN[C@H]3CC[C@@H](O[C@H]4C[C@@H](Oc5cc(N6C7CCC6CN(c6cc(-c8ccccc8O)nnc6N)C7)ccn5)C4)CC3)no2)C(C)C)cn1 [compound 388]
2.5 to 10 nM

Query (molecule): CC(C)[C@@H](C(=O)N1C[C@H](O)C[C@H]1C(=O)N[C@@H](C)c1ccc(C#N)cc1)c1cc(OCC#Cc2ncc(O[C@H]3C[C@H](Oc4cc(N5C6CCC5CN(c5cc(-c7ccccc7O)nnc5N)C6)ccn4)C3)cn2)no1 [compound 387] ; field requested: DC50
< 2.5 nM

# input molecule: Cc1ncsc1-c1ccc([C@H](C)NC(=O)[C@@H]2C[C@@H](O)CN2C(=O)[C@@H](c2cc(OC[C@@H]3C[C@H]3c3ccc(O[C@H]4C[C@H](Oc5cc(N6C7CCC6CN(c6cc(-c8ccccc8O)nnc6N)C7)ccn5)C4)cn3)no2)C(C)C)cn1 [compound 480] ; wanted: its DC50
< 2.5 nM

DC50 for Cc1ncsc1-c1ccc([C@H](C)NC(=O)[C@@H]2C[C@@H](O)CN2C(=O)[C@@H](c2cc(N3CCN(CC4CCN(C[C@H]5C[C@H](Oc6cc(N7C8CCC7CN(c7cc(-c9ccccc9O)nnc7N)C8)ccn6)C5)CC4)CC3)no2)C(C)C)cc1 [compound 458] ?
< 2.5 nM

Which value of DC50 has been reported for Cc1ncsc1-c1ccc([C@H](C)NC(=O)[C@@H]2C[C@@H](O)CN2C(=O)[C@@H](c2cc(OCCC3CCN(C(=O)[C@H]4C[C@H](CN5CCC([C@@H](C)n6cc(-c7cc(-c8ccccc8O)nnc7N)cn6)CC5)C4)CC3)no2)C(C)C)cc1 [compound 456] in the records?
> 30 nM

Can you look up the measured DC50 of Cc1ncsc1-c1ccc([C@H](C)NC(=O)[C@@H]2C[C@@H](O)CN2C(=O)[C@H](c2cc(OC[C@@H]3C[C@H]3c3ccc(O[C@H]4C[C@H](Oc5cc(N6C7CCC6CN(c6cc(-c8ccccc8O)nnc6N)C7)ccn5)C4)cn3)no2)C(C)C)cn1 [compound 479] for me?
> 30 nM

Quick one: DC50 for Cc1ncsc1-c1ccc([C@H](C)NC(=O)[C@@H]2C[C@@H](O)CN2C(=O)[C@@H](c2cc(OC/C=C/c3ncc(O[C@H]4C[C@H](Oc5cc(N6C7CCC6CN(c6cc(-c8ccccc8O)nnc6N)C7)ccn5)C4)cn3)no2)C(C)C)cc1 [compound 392] ?
< 2.5 nM

###

Please provide measured DC50 for the entries that follow.
- target entity: BRM (Homo sapiens, UniProt P51531)
- Construct: In-Cell Western Screen of BRM Degradation in SW1573 Cells; endogenous in cells; host or cells: SW1573
- Sequence (P51531 whole entry): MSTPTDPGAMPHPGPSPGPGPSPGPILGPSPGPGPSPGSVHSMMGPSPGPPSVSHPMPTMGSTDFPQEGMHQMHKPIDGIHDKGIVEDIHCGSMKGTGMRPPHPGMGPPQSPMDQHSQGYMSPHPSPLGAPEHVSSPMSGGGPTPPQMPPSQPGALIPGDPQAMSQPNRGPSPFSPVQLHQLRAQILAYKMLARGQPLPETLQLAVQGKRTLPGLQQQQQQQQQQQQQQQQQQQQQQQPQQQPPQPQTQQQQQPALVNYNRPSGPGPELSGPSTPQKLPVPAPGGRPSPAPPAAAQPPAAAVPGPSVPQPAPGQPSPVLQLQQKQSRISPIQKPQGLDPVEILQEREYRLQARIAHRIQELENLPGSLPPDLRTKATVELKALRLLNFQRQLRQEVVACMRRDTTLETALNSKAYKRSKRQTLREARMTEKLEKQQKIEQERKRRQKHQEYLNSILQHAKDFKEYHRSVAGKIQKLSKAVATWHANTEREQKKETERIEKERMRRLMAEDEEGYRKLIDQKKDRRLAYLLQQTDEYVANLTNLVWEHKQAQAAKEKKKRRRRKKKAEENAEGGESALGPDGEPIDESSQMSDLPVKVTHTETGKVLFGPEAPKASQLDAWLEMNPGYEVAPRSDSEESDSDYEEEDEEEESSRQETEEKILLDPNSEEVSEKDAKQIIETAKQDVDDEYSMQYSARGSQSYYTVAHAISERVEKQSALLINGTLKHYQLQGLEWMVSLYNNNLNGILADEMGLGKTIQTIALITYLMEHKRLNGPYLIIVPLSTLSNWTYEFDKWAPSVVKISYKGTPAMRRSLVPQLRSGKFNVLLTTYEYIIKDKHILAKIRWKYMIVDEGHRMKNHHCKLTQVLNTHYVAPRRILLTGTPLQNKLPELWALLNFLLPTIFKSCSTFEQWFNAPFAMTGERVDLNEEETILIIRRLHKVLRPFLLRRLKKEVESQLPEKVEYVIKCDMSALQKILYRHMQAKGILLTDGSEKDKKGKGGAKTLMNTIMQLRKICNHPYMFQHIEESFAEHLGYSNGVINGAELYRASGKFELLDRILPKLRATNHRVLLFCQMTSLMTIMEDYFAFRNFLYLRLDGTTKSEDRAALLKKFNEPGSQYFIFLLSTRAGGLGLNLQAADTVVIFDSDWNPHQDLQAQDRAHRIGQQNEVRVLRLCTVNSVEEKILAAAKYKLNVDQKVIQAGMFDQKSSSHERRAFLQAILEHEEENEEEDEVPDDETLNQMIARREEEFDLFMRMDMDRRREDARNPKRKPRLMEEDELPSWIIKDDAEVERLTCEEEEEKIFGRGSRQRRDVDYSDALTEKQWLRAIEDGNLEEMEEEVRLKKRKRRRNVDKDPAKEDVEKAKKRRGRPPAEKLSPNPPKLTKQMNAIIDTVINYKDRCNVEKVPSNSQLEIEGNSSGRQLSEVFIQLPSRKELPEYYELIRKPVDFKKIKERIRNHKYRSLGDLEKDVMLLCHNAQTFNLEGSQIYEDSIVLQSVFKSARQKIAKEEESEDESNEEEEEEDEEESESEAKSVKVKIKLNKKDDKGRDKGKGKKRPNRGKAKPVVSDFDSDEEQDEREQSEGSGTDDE
- method summary: In-cell Western screen of BRM degradation in SW1573 cells (Dmax and DC50)
- Type: cell-based
- settings: BRM degradation, SW1573 cells; read-out: DC50

Consider the compound "CC(C)[C@@H](C(=O)N1C[C@H](O)C[C@H]1C(=O)N[C@@H](C)c1ccc(C#N)cc1)c1cc(OCCN2CCC(O[C@H]3C[C@H](Oc4cc(N5C6CCC5CN(c5cc(-c7ccccc7O)nnc5N)C6)ccn4)C3)CC2)no1" and give its measured DC50.
< 2.5 nM

Given the entry "Cc1ncsc1-c1ccc(CNC(=O)[C@@H]2C[C@@H](O)CN2C(=O)[C@@H](c2cc(OCCOCCOCCOCCOc3cc(N4C5CCC4CN(c4cc(-c6ccccc6O)nnc4N)C5)ccn3)no2)C(C)C)cc1" , report its measured DC50.
< 2.5 nM

###

I'd appreciate it if you could supply DC50 values for the items below.
- target entity: BRM (Homo sapiens, UniProt P51531)
- Construct: In-Cell Western Screen of BRM Degradation in SW1573 Cells; endogenous in cells; host or cells: SW1573
- method summary: In-cell Western screen of BRM degradation in SW1573 cells (Dmax and DC50)
- Assay type: cell-based
- settings: BRM degradation, SW1573 cells; read-out: DC50

Record request: DC50 value, item Cc1nccn1-c1ccc([C@H](C)NC(=O)[C@@H]2C[C@@H](O)CN2C(=O)[C@H](c2cc(OCCN3CCN(CCOc4cc(N5C6CCC5CN(c5cc(-c7ccccc7O)nnc5N)C6)ccn4)CC3)no2)C(C)C)cc1 [compound 75]
10 to 30 nM

Could you share which DC50 value was measured for CC(C)[C@H](C(=O)N1C[C@H](O)C[C@H]1C(=O)N[C@@H](C)c1ccc(C#N)cc1)c1cc(N2CCC(CN3CCC(O[C@H]4C[C@H](C#C[C@@H](C)n5cc(-c6cc(-c7ccccc7O)nnc6N)cn5)C4)CC3)CC2)no1 (single isomer, unassigned) [compound 697] ?
> 30 nM

Quick one: DC50 for Cc1ncsc1-c1ccc([C@H](C)NC(=O)[C@@H]2C[C@@H](O)CN2C(=O)[C@@H](c2cc(OCCCc3ccc(C(C)n4cc(-c5cc(-c6ccccc6O)nnc5N)cn4)cc3)no2)C(C)C)cc1 (some centres unmarked) [compound 60] ?
< 2.5 nM

Reported DC50 for Cc1ncsc1-c1ccc(CNC(=O)[C@@H]2C[C@@H](O)CN2C(=O)[C@H](c2cc(OCCN3CCN(CCOCCn4cc(-c5cc(-c6ccccc6O)nnc5N)cn4)CC3)no2)C(C)C)cc1 [compound 165] : what is it?
> 30 nM

State the recorded DC50 for this entry: Cc1ncsc1-c1ccc([C@H](CO)NC(=O)[C@@H]2C[C@@H](O)CN2C(=O)[C@@H](c2cc(OCCN3CCN(CCOc4cc(N5C6CCC5CN(c5cc(-c7ccccc7O)nnc5N)C6)ccn4)CC3)no2)C(C)C)cc1 [compound 100]
< 2.5 nM

Reported DC50 for Cc1ncsc1-c1ccc([C@H](C)NC(=O)[C@@H]2C[C@@H](O)CN2C(=O)[C@@H](c2cc(OCCOc3ccc(C(C)n4cc(-c5cc(-c6ccccc6O)nnc5N)cn4)cc3)no2)C(C)C)cc1 (some centres unmarked) [compound 81] : what is it?
< 2.5 nM

// query DC50 value for entry Cc1ncsc1-c1ccc([C@H](C)NC(=O)[C@@H]2C[C@@H](O)CN2C(=O)[C@H](c2cc(OCCN3CCC(O[C@H]4C[C@H](Oc5cc(N6C7CCC6CN(c6cc(-c8ccccc8O)nnc6N)C7)ccn5)C4)CC3)no2)C(C)C)cc1F [compound 252]
> 30 nM

Fill in: DC50 of Cc1ncsc1-c1ccc([C@H](C)NC(=O)[C@@H]2C[C@@H](O)CN2C(=O)[C@@H](c2cc(OCCN3CCC(O[C@H]4C[C@H](C#Cc5cc(N6C7CCC6CN(c6cc(-c8ccccc8O)nnc6N)C7)ccn5)C4)CC3)no2)C(C)C)cc1 [compound 216] is ___
< 2.5 nM

Need DC50, item Cc1ncsc1-c1ccc([C@H](C)NC(=O)[C@@H]2C[C@@H](O)CN2C(=O)[C@H](c2cc(OCCC3CCN(C[C@H]4C[C@H](C#CC(C)n5cc(-c6cc(-c7ccccc7O)nnc6N)cn5)C4)CC3)no2)C(C)C)cc1 (some centres unmarked) [compound 633]
< 2.5 nM

// DC50 lookup, key: Cc1ncsc1-c1ccc(CNC(=O)[C@@H]2C[C@@H](O)CN2C(=O)[C@@H](NC(=O)COCCOCCOCCOCCOc2cc(N3C4CCC3CN(c3cc(-c5ccccc5O)nnc3N)C4)ccn2)C(C)(C)C)cc1 [compound 7]
2.5 to 10 nM

Would you mind telling me what DC50 value was observed for Cc1ncsc1-c1ccc([C@@H](NC(=O)[C@@H]2C[C@@H](O)CN2C(=O)[C@H](c2cc(OCCN3CCN(CCOc4cc(N5C6CCC5CN(c5cc(-c7ccccc7O)nnc5N)C6)ccn4)CC3)no2)C(C)C)C(=O)N(C)c2ccccc2)cc1 [compound 258] ?
> 30 nM

Quick one: DC50 of Cc1ncsc1-c1ccc([C@H](C)NC(=O)[C@@H]2C[C@@H](O)CN2C(=O)[C@@H](c2cc(OCCOCCOCCCCN3CCC4(CCN(c5cc(-c6ccccc6O)nnc5N)CC4)C3)no2)C(C)C)cc1 [compound 74] ?
10 to 30 nM

Recorded DC50 of Cc1ncsc1-c1c(F)cc([C@H](C)NC(=O)[C@@H]2C[C@@H](O)CN2C(=O)[C@@H](c2cc(N3CCC(CN4CCC(O[C@H]5C[C@H](Oc6cc(N7C8CCC7CN(c7cc(-c9ccccc9O)nnc7N)C8)ccn6)C5)CC4)CC3)no2)C(C)C)cc1F [compound 666] , please.
< 2.5 nM

Requested read-out: DC50. Entry: Cc1ncsc1-c1ccc([C@H](C)NC(=O)[C@@H]2C[C@@H](O)CN2C(=O)[C@@H](c2cc(OCC(=O)N3CCC(O[C@H]4C[C@H](Oc5cc(N6C7CCC6CN(c6cc(-c8ccccc8O)nnc6N)C7)ccn5)C4)CC3)no2)C(C)C)cn1 [compound 286]
2.5 to 10 nM

Please give the measured DC50 for this molecule: Cc1ncsc1-c1ccc([C@H](C)NC(=O)[C@@H]2C[C@@H](O)CN2C(=O)[C@H](c2cc(OCC#Cc3ccc(O[C@H]4C[C@H](Oc5cc(N6C7CCC6CN(c6cc(-c8ccccc8O)nnc6N)C7)ccn5)C4)cn3)no2)C(C)C)cn1 [compound 236]
> 30 nM

Could you tell me which DC50 is on file for CC(C)[C@@H](C(=O)N1C[C@H](O)C[C@H]1C(=O)N[C@@H](C)c1ccc(-c2scnc2N)cc1)c1cc(N2CCC(CN3CCC(O[C@H]4C[C@H](Oc5cc(N6C7CCC6CN(c6cc(-c8ccccc8O)nnc6N)C7)ccn5)C4)CC3)CC2)no1 [compound 630] ?
< 2.5 nM

Request the reported DC50 associated with Cc1ncsc1-c1ccc(CNC(=O)[C@@H]2C[C@@H](O)CN2C(=O)[C@@H](NC(=O)COCCOCCn2cc(-c3cc(-c4ccccc4O)nnc3N)cn2)C(C)(C)C)cc1 [compound 11]
> 30 nM
